Entries and their measured IC50 follow.
biological target: kinases (kinome) (Homo sapiens, UniProt P68400); construct: determined in kinobeads assays with mass spectrometry detection of kinases as described previously; endogenous in cells; assay: kinobeads assay with mass spectrometry detection of kinases (kinase selectivity profile); details: CK2a1 (Other), IPI00016613
Sequence (P68400 whole entry): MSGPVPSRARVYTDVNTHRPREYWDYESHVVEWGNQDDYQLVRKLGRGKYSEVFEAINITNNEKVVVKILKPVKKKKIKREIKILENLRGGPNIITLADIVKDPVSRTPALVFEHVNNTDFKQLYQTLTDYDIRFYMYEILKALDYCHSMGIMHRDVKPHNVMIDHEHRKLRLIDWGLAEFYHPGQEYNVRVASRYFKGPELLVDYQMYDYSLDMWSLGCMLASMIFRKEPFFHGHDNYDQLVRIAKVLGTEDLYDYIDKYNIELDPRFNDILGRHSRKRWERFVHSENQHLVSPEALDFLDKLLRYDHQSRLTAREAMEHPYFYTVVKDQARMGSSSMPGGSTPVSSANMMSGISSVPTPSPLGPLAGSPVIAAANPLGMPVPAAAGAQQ

The examples below pair each entry with its known result.
{"smiles-data": "C[C@H]1COCCN1c1cc(-c2ccccc2S(C)(=O)=O)nc(-c2ccc(NC(=O)NC3CC3)cc2)n1", "IC50": "> 10 µM"}
{"smiles-data": "C[C@H]1COCCN1c1nc(-c2ccc(NC(=O)NC3CC3)cc2)cc(-c2ccccc2S(C)(=O)=O)n1", "IC50": "> 10 µM"}

Kindly review the next molecule as well.
Using the record for "C[C@H]1COCCN1c1cc(-c2ccccn2)nc(-c2ccc(NC(=O)NCCO)cc2)n1" , report its IC50.
> 10 µM
